Molecular target: α2-adrenergic receptor ([3H] clonidine binding site in calf cerebral cortex) (Bos taurus)
Sequence (Q28838 whole entry): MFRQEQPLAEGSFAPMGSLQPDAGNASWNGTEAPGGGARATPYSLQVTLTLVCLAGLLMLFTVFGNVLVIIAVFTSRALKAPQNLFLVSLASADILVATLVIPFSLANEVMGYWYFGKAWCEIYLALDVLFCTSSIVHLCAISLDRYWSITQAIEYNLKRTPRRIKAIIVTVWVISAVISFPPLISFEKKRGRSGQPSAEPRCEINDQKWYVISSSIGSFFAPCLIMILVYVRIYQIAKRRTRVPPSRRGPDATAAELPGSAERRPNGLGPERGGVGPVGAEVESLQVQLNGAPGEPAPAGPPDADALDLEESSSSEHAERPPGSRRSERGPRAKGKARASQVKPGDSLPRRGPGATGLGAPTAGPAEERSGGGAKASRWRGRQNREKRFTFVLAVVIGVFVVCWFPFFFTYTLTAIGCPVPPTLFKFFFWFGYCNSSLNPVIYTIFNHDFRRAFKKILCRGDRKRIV
Assay: α2-adrenergic receptor binding ([3H] clonidine binding site)
Please go through the items and note down their Ki.
The answer is to be given in nM; state only the numeric part.

QUERY: # get_value(readout= Ki, system= α2-adrenergic receptor ([3H] clonidine binding site in calf cerebral cortex) (Bos taurus)) for Clc1cnc2c(N3CCNCC3)nccn12
RESULT: 240

QUERY: # get_value(readout= Ki, system= α2-adrenergic receptor ([3H] clonidine binding site in calf cerebral cortex) (Bos taurus)) for c1cn2ccnc2c(N2CCNCC2)n1 [Compound 3, 8-(1-piperazinyl)imidazo[1,2-a]pyrazine]
RESULT: 15

QUERY: # get_value(readout= Ki, system= α2-adrenergic receptor ([3H] clonidine binding site in calf cerebral cortex) (Bos taurus)) for Clc1cn2ccnc2c(N2CCNCC2)n1
RESULT: 73

QUERY: # get_value(readout= Ki, system= α2-adrenergic receptor ([3H] clonidine binding site in calf cerebral cortex) (Bos taurus)) for CN1CCN(c2nc(Cl)cn3ccnc23)CC1
RESULT: 121

---

Target: α1-adrenergic receptor ([3H] prazosin binding site in calf cerebral cortex)
Assay: α1-adrenergic receptor binding ([3H] prazosin binding site)
endpoint.name: pKi
Entry type: numeric. Quantity: pKi, the -log10 of concentration in molar units.

QUERY: So what does the record say about pKi for CN1CCN(c2nc(Cl)cn3ccnc23)CC1 ?
RESULT: 6.42

QUERY: So what does the record say about pKi for Clc1cn2ccnc2c(N2CCNCC2)n1 ?
RESULT: 6.60

QUERY: So what does the record say about pKi for Clc1cnc2c(N3CCNCC3)nccn12 ?
RESULT: 5.55

QUERY: So what does the record say about pKi for c1cn2ccnc2c(N2CCNCC2)n1 [Compound 3, 8-(1-piperazinyl)imidazo[1,2-a]pyrazine] ?
RESULT: 5.51
